Tested on: Acinetobacter baumannii
Assay Text: Antimicrobial activity against Acinetobacter baumannii 695 isolate harboring bla IMP-1 carrying integron In86 containing aminoglycoside resistance gene aac(6')-3
Format: functional
Assign MIC to each entry below.

Compound: CC(C)(O/N=C(\C(=O)N[C@@H]1C(=O)N2C(C(=O)[O-])=C(C[n+]3ccccc3)CS[C@H]12)c1csc(N)n1)C(=O)O [CEFTAZIDIME]
MIC: > 16 µg/mL

Hi team, please reply with MIC for each item in this list.
1. NC[C@H]1O[C@H](O[C@H]2[C@H](O)[C@@H](O[C@H]3O[C@H](CO)[C@@H](O)[C@H](N)[C@H]3O)[C@H](N)C[C@@H]2N)[C@H](N)C[C@@H]1O [TOBRAMYCIN]
2. C[C@H]1[C@H](NC(=O)/C(=N\OC(C)(C)C(=O)O)c2csc(N)n2)C(=O)N1S(=O)(=O)O [AZTREONAM]
3. C[C@@H](O)[C@H]1C(=O)N2C(C(=O)O)=C(SCCNC=N)C[C@H]12 [IMIPENEM ANHYDROUS]
4. COc1c(N2CCNC(C)C2)c(F)cc2c(=O)c(C(=O)O)cn(C3CC3)c12 (configuration not stated) [GATIFLOXACIN]

Response line:
1: > 16 µg/mL; 2: > 16 µg/mL; 3: > 8 µg/mL; 4: 4 µg/mL

Provide reported MIC for each item, in the same order as listed.
1. CC1(C)S[C@@H]2[C@H](NC(=O)[C@H](C(=O)O)c3ccsc3)C(=O)N2[C@H]1C(=O)O [TICARCILLIN]
2. CO/N=C(\C(=O)N[C@@H]1C(=O)N2C(C(=O)[O-])=C(C[N+]3(C)CCCC3)CS[C@H]12)c1csc(N)n1

Response line:
1: > 128 µg/mL; 2: > 16 µg/mL

###

Test system: Acinetobacter baumannii
Assay Text: Antimicrobial activity against Acinetobacter baumannii 501 isolate harboring bla IMP-1 carrying integron In86 containing aminoglycoside resistance gene aac(6')-3
Type: functional
What MIC was measured for each of the following?
Give bare numbers, in µg/mL.

Reference set, count: 2
Compound: NCC[C@H](O)C(=O)N[C@@H]1C[C@H](N)[C@@H](O[C@H]2O[C@H](CN)[C@@H](O)[C@H](O)[C@H]2O)[C@H](O)[C@H]1O[C@H]1O[C@H](CO)[C@@H](O)[C@H](N)[C@H]1O [AMIKACIN]
Value Measured: 32
--
Compound: O=C(O)c1cn(C2CC2)c2cc(N3CCNCC3)c(F)cc2c1=O [CIPROFLOXACIN]
Value Measured: 0.12

Prompt line: Name the recorded MIC of the item CCN1CCN(C(=O)N[C@@H](C(=O)N[C@@H]2C(=O)N3[C@@H]2SC(C)(C)[C@@H]3C(=O)O)c2ccccc2)C(=O)C1=O [PIPERACILLIN] in your answer.
Response line: 32

###

Please respond with reported MIC for every item in the list.
System: Escherichia coli
Assay Text: Antimicrobial activity against Escherichia coli DH5alpha harboring recombinant pIMPAR31
Format: functional
Numbers only, in µg/mL.

Illustrative cases are given below, each with its answer.
Structure Smiles: CCN[C@@H]1C[C@H](N)[C@@H](O[C@H]2OC(CN)=CC[C@H]2N)[C@H](O)[C@H]1O[C@H]1OC[C@](C)(O)[C@H](NC)[C@H]1O
MIC [µg/mL]: 4

Structure Smiles: NCC[C@H](O)C(=O)N[C@@H]1C[C@H](N)[C@@H](O[C@H]2O[C@H](CN)[C@@H](O)[C@H](O)[C@H]2O)[C@H](O)[C@H]1O[C@H]1O[C@H](CO)[C@@H](O)[C@H](N)[C@H]1O
MIC [µg/mL]: 8

Structure Smiles: NC[C@H]1O[C@H](O[C@H]2[C@H](O)[C@@H](O[C@H]3O[C@H](CO)[C@@H](O)[C@H](N)[C@H]3O)[C@H](N)C[C@@H]2N)[C@H](N)C[C@@H]1O
MIC [µg/mL]: 4

Structure Smiles: CN[C@@H]1[C@@H](O)[C@@H](O[C@@H]2[C@@H](O)[C@H](O[C@H]3O[C@H](CN)[C@@H](O)[C@H](O)[C@H]3O)[C@@H](N)C[C@H]2NC(=O)[C@@H](O)CN)OC[C@]1(C)O
MIC [µg/mL]: 4

Let us move to another entry and its MIC.
Prompt line: Look up MIC of CN[C@@H]1[C@@H](O)[C@@H](O[C@@H]2[C@@H](O)[C@H](O[C@H]3OC(CN)=CC[C@H]3N)[C@@H](N)C[C@H]2N)OC[C@]1(C)O and report it.
Response line: 8

###

Would you mind telling me the reported MIC of each entry?
Test system: Acinetobacter sp.
Assay Text: Antimicrobial activity against Acinetobacter sp. 5248 isolate harboring bla IMP-1 carrying integron In86 containing aminoglycoside resistance gene aac(6')-3
Type: functional

Consider the worked cases shown below.
Molecule: CO/N=C(\C(=O)N[C@@H]1C(=O)N2C(C(=O)[O-])=C(C[N+]3(C)CCCC3)CS[C@H]12)c1csc(N)n1
MIC: > 16 µg/mL

Molecule: COc1c(N2CCNC(C)C2)c(F)cc2c(=O)c(C(=O)O)cn(C3CC3)c12 (centres undefined)
MIC: 4 µg/mL

Molecule: CCN1CCN(C(=O)N[C@@H](C(=O)N[C@@H]2C(=O)N3[C@@H]2SC(C)(C)[C@@H]3C(=O)O)c2ccccc2)C(=O)C1=O
MIC: > 128 µg/mL

Molecule: NCC[C@H](O)C(=O)N[C@@H]1C[C@H](N)[C@@H](O[C@H]2O[C@H](CN)[C@@H](O)[C@H](O)[C@H]2O)[C@H](O)[C@H]1O[C@H]1O[C@H](CO)[C@@H](O)[C@H](N)[C@H]1O
MIC: 32 µg/mL

Molecule: CCN[C@@H]1C[C@H](N)[C@@H](O[C@H]2OC(CN)=CC[C@H]2N)[C@H](O)[C@H]1O[C@H]1OC[C@](C)(O)[C@H](NC)[C@H]1O
MIC: 16 µg/mL

Could you tell me MIC for each of these molecules? They are listed below.
1. C[C@@H](O)[C@H]1C(=O)N2C(C(=O)O)=C(SCCNC=N)C[C@H]12 [IMIPENEM ANHYDROUS]
2. NC[C@H]1O[C@H](O[C@H]2[C@H](O)[C@@H](O[C@H]3O[C@H](CO)[C@@H](O)[C@H](N)[C@H]3O)[C@H](N)C[C@@H]2N)[C@H](N)C[C@@H]1O
3. CC1(C)S[C@@H]2[C@H](NC(=O)[C@H](C(=O)O)c3ccsc3)C(=O)N2[C@H]1C(=O)O
4. O=C(O)c1cn(C2CC2)c2cc(N3CCNCC3)c(F)cc2c1=O
5. CC1(C)S[C@@H]2[C@H](NC(=O)[C@H](N)c3ccccc3)C(=O)N2[C@H]1C(=O)O

Response line:
["> 8 µg/mL", "8 µg/mL", "> 128 µg/mL", "> 4 µg/mL", "> 16 µg/mL"]

###

System: Acinetobacter baumannii
Assay Text: Antimicrobial activity against Acinetobacter baumannii 695 isolate harboring bla IMP-1 carrying integron In86 containing aminoglycoside resistance gene aac(6')-3
Type: functional
Readout Kind: MIC (µg/mL)
Answers are plain numbers, in µg/mL.

Molecule: CCN1CCN(C(=O)N[C@@H](C(=O)N[C@@H]2C(=O)N3[C@@H]2SC(C)(C)[C@@H]3C(=O)O)c2ccccc2)C(=O)C1=O [PIPERACILLIN]
Result Unit: µg/mL
MIC: 128

Take each entry in turn and give its MIC.
1. NCC[C@H](O)C(=O)N[C@@H]1C[C@H](N)[C@@H](O[C@H]2O[C@H](CN)[C@@H](O)[C@H](O)[C@H]2O)[C@H](O)[C@H]1O[C@H]1O[C@H](CO)[C@@H](O)[C@H](N)[C@H]1O [AMIKACIN]
2. CCN[C@@H]1C[C@H](N)[C@@H](O[C@H]2OC(CN)=CC[C@H]2N)[C@H](O)[C@H]1O[C@H]1OC[C@](C)(O)[C@H](NC)[C@H]1O [NETILMICIN]

Response line:
1. 32
2. 8

###

Test system: Acinetobacter baumannii
Assay Text: Antimicrobial activity against Acinetobacter baumannii 501 isolate harboring bla IMP-1 carrying integron In86 containing aminoglycoside resistance gene aac(6')-3
Type: functional
Readout Kind: MIC

Compound: C[C@@H](O)[C@H]1C(=O)N2C(C(=O)O)=C(SCCNC=N)C[C@H]12 [IMIPENEM ANHYDROUS]
MIC: > 8 µg/mL

Kindly give each listed record's MIC.
1. COc1c(N2CCNC(C)C2)c(F)cc2c(=O)c(C(=O)O)cn(C3CC3)c12 (configuration not stated)
2. C[C@H]1COc2c(N3CCN(C)CC3)c(F)cc3c(=O)c(C(=O)O)cn1c23.C[C@H]1COc2c(N3CCN(C)CC3)c(F)cc3c(=O)c(C(=O)O)cn1c23.O

Response line:
1: 0.12 µg/mL; 2: 0.25 µg/mL
